molecular target: UniProtKB P34972; experiment: Human cannabinoid receptor bonding inhibition test ([3H]CP55940), CB2; type: binding; design: expressed in transfected cells; membrane fraction
Sequence (P34972 whole entry): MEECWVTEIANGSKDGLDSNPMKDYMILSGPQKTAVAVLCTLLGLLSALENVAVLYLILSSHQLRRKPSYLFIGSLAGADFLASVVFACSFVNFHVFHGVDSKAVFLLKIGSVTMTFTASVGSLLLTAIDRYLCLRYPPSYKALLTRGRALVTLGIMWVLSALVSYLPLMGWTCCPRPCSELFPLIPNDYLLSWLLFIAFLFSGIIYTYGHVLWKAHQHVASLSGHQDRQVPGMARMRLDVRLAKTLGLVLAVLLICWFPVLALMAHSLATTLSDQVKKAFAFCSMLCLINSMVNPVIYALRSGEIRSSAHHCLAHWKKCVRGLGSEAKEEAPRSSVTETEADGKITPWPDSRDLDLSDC
# note: boundary value 7 nM maps to Condition not met; Ki below it maps to Condition met

// below: answered molecules
> print(dat)
                                   molecule     classification
1  O=C(O)CC(NC(=O)c1cc2c(n(Cc3ccc(F)cc3)c1=O)CCCCCC2)C(F)(F)F (stereo not shown) [II-067]  Condition not met
2  CCCc1c(CC)cc(C(=O)N[C@H](C(=O)OC)C(C)C)c(=O)n1CC1CCCCC1 [Compound I-133]      Condition met
3  CC(C)(NC(=O)c1cc2c(n(CC3CCCCC3)c1=O)CCCCCC2)C(=O)N1CCC(C(=O)N2CCOCC2)CC1 [Compound I-617]      Condition met
4  CCCCn1c2c(cc(C(=O)NC(CCC(=O)O)CC(C)C)c1=O)CCCCCC2 (stereo not shown) [Compound X-202]  Condition not met
5  CCCCn1c2c(cc(C(=O)NC3CCCCC3)c1=O)CCCCCC2 [Compound 10-035, reference compound]      Condition met

Ki under 7 nM? Item: COC(=O)[C@@H](NC(=O)c1cc2c(n(Cc3ccc(F)cc3)c1=O)CCCCCC2)C(C)C [Compound I-253]
Condition met

// repeat for CCCCn1c(CCC)c(CC)cc(C(=O)NC2(C(=O)O)CCCCCC2)c1=O [Compound X-241] and report
Condition not met

Also check O=C(N[C@H](C(=O)O)c1ccccc1)c1cc2c(n(CC3CCCCC3)c1=O)CCCCCC2 [Compound I-402]
Condition met

Next record, please: CC(C)C[C@@H](CC(=O)O)NC(=O)c1cc2c(n(CC3CCCCC3)c1=O)CCCCCC2 [II-069]
Condition met

###

The following compounds are listed with their measured log10 of Ki values.
target: CB1 receptor (Homo sapiens, UniProt P21554); experiment: Human cannabinoid receptor bonding inhibition test ([3H]CP55940), CB1; assay type: binding; parameters: expressed in transfected cells; membrane fraction; conditions: [3H]CP55940 0.5 nM, membrane preparation of CHO cells expressing CB1; Ki calculated from IC50; read-out: Binding activity (nM) CB1
Sequence (P21554 whole entry): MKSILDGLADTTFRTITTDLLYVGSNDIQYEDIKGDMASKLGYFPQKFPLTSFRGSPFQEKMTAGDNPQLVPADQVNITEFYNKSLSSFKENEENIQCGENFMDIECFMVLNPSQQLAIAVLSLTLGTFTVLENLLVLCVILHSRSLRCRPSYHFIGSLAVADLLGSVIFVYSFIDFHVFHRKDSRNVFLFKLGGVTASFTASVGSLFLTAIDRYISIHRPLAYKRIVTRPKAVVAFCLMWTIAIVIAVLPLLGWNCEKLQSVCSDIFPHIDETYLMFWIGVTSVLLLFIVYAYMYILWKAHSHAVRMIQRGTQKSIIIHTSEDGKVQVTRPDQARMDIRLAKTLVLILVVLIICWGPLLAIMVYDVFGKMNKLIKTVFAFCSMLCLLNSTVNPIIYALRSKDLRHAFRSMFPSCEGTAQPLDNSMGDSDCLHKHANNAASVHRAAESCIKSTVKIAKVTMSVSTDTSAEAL
Quick note: numbers are log10 of Ki, with nM as the unit.

> print(dat)
                                   compound  reported.measurement
1  CC(=O)N1CCN(C(=O)C(C)(C)NC(=O)c2cc3c(n(CC4CCCCC4)c2=O)CCCCCC3)CC1 [Compound I-579]                  2.20
2  O=C(O)Cc1cnc(NC(=O)c2cc3c(n(CCCC(F)(F)F)c2=O)CCCCCC3)s1 [Compound X-115]                  3.09
3  CC(C)(NC(=O)c1cc2c(n(CC3CCCCC3)c1=O)CCCCCC2)C(=O)NCC(N)=O [Compound I-054]                  1.04
4  CC(C)(NC(=O)c1cc2c(n(CC3CCCCC3)c1=O)CCCCCC2)C(=O)N1CCC(NS(C)(=O)=O)CC1 [Compound I-572]                  1.59
5  O=C(NC1(C(=O)O)CCCCCCC1)c1cc2c(n(CC3CCCCC3)c1=O)CCCCCC2 [Compound X-240]                  2.90

Pending compound:
Would you mind telling me what log10 of Ki value was observed for CCCCn1c2c(cc(C(=O)NC(CC)(CC)CC(=O)O)c1=O)CCCCCC2 [Compound X-128] ?
2.78

These data points were gathered from patent US8367666B2.
